Would you kindly list TGI for each of these molecules?
Tested on: HCT-116 colon
Assay: NCI tumour cell line growth inhibition, 48 h

The recorded TGI for `CN1/C(=C/C=C/C=C/C=C2C(=O)c3ccccc3C2=O)C(C)(C)c2ccccc21` is > 100 µM

The recorded TGI for `Cc1cc(S(=O)(=O)Nc2nc3ncccc3[nH]2)c(S)cc1Cl` is > 100 µM

The recorded TGI for `COc1ccc([C@H](CC(=O)O)N2CCN(CCCc3ccc4c(n3)NCCC4)C2=O)cn1` is > 34.7 µM

The recorded TGI for `COc1ccc(C#Cn2nnc3ccccc32)cc1` is > 100 µM

The recorded TGI for `N#CC(CCN1CCC(Nc2ccccc2)(c2nnnn2C2CCCCC2)CC1)(c1ccccc1)c1ccccc1` is > 100 µM

The recorded TGI for Oc1c(C(Nc2ccccc2Br)c2ccccc2)ccc2cccnc12 (centres undefined) is 18 µM

The recorded TGI for `CCCn1c(SCCSc2c3ccccc3c(-c3nc(F)nc(F)n3)n2CCC)c2ccccc2c1-c1nc(F)nc(F)n1` is > 100 µM

The recorded TGI for `C/C(CC(=O)Nc1cccc(Cl)c1C)=N\NC(N)=S` is > 100 µM

The recorded TGI for CC(C(=O)OCc1ccccc1)N(Cc1ccccc1)Cc1ccccc1 (centres undefined) is > 100 µM

The recorded TGI for `COc1cc2ccc(C(=O)NCCCNC(=O)c3ccc4cc(OC)c(OC)cc4c3)cc2cc1OC` is > 100 µM

The recorded TGI for `NS(=O)(=O)c1nc(S(=O)(=O)O)c2[nH]cnc2n1` is > 100 µM

The recorded TGI for `CCC[CH2][Sn]([CH2]CCC)([O]C(=O)c1cc(OC)c(OC)cc1OC)[O][Sn]([CH2]CCC)([CH2]CCC)[O]C(=O)c1cc(OC)c(OC)cc1OC` is 1.82 µM

The recorded TGI for C=C1CC(CC)(CCN2C(=O)c3ccccc3C2=O)OC1=O (centres undefined) is 25.4 µM

The recorded TGI for CC1CC/C(=C\c2ccc(F)cc2)C2=C1C(c1ccc(F)cc1)N1C(=O)CSC1=N2 (centres undefined) is > 100 µM

The recorded TGI for CC(C)(C)C1CCC2c3c([nH]c4ccccc34)C3C(=O)N(c4ccc(C#N)cc4)C(=O)C3C2C1 (centres undefined) is 18 µM

The recorded TGI for `O=C(Nc1sccc1S(=O)(=O)c1ccc(Cl)cc1)c1ccc(F)cc1F` is > 100 µM

The recorded TGI for `CC[C@@]1(O)C(=O)OCc2c1cc1n(c2=O)Cc2c-1nc1ccc(O)cc1c2[Si](C)(C)C(C)(C)C` is 0.147 µM

The recorded TGI for Cc1cn(C2CCC(CO)(CF)O2)c(=O)[nH]c1=O (centres undefined) is > 100 µM

The recorded TGI for `C/C(=C\c1ccn(-c2ccccc2N)n1)[C@@H]1C[C@@H]2O[C@]2(C)CCC[C@H](C)[C@H](O)[C@@H](C)C(=O)C(C)(C)[C@@H](O)CC(=O)O1` is > 50 µM
